Tested on: NCI-H1155 (Non-Small Cell Lung Carcinoma)
ASSAY EXPLANATION: combination Emax (second highest fraction inhibited in the dose matrix, 72 h); higher = more inhibition; extreme values may be limits of the assay
OBSERVED PROPERTY: combination Emax
Form rule: numeric answer, no unit written next to it.

Query :: Which measured combination Emax value corresponds to COc1cccc(OCCCN)c1-c1cc(Nc2cnc(C#N)cn2)n[nH]1 [Prexasertib] + O=C(c1cc(Cc2n[nH]c(=O)c3ccccc23)ccc1F)N1CCN(C(=O)C2CC2)CC1 [Olaparib] (first compound max 1 µM, 7x7, partner max 10 µM) ?
Result :: 0.927

Query :: Which measured combination Emax value corresponds to CN(CCO)CC[C@H](CSc1ccccc1)Nc1ccc(S(=O)(=O)NC(=O)c2ccc(N3CCC([C@@H](O)c4ccccc4-c4ccc(Cl)cc4)CC3)cc2)cc1S(=O)(=O)C(F)(F)F [AZD4320] + CCN(CCO)CCCOc1ccc2c(Nc3cc(CC(=O)Nc4cccc(F)c4)[nH]n3)ncnc2c1 [AZD2811] (first compound max 1 µM, 7x7, partner max 1 µM) ?
Result :: 0.918

Query :: Which measured combination Emax value corresponds to CC1(C)CCC(CN2CCN(c3ccc(C(=O)NS(=O)(=O)c4ccc(NCC5CCOCC5)c([N+](=O)[O-])c4)c(Oc4cnc5[nH]ccc5c4)c3)CC2)=C(c2ccc(Cl)cc2)C1 [Venetoclax] + CCN(CCO)CCCOc1ccc2c(Nc3cc(CC(=O)Nc4cccc(F)c4)[nH]n3)ncnc2c1 [AZD2811] (first compound max 1 µM, 7x7, partner max 1 µM) ?
Result :: 0.887

Query :: Which measured combination Emax value corresponds to COc1nnc2ccc(N3CCC(c4ccc(OCCN5CCN(C)C(=O)[C@H]5C)cc4)CC3)nn12 [AZD5153] + C[C@@H]1COCCN1C2=NC(=NC(=C2)C3(CC3)[S@](=N)(=O)C)C4=C5C=CNC5=NC=C4 [AZD6738] (first compound max 1 µM, 7x7, partner max 10 µM) ?
Result :: 0.942

Query :: Which measured combination Emax value corresponds to Cc1cc2ncnn2cc1Nc1ncc2c(n1)n(C1CCOCC1)c(=O)n2C [AZD7648] + O=C(c1cc(Cc2n[nH]c(=O)c3ccccc23)ccc1F)N1CCN(C(=O)C2CC2)CC1 [Olaparib] (first compound max 10 µM, 7x7, partner max 10 µM) ?
Result :: 0.293

Query :: Which measured combination Emax value corresponds to Cc1c2c(nn1C)CSCc1cc(n(C)n1)CSc1cc(c3ccccc3c1)OCCCc1c(C(=O)O)n(C)c3c-2c(Cl)ccc13 [AZD5991] + C=CCn1c(=O)c2cnc(Nc3ccc(N4CCN(C)CC4)cc3)nc2n1-c1cccc(C(C)(C)O)n1 [AZD1775] (first compound max 1 µM, partner max 1 µM) ?
Result :: 0.786
